- Tested on: HEK-293T
- ASSAY_DETAILS: Multiplex assay against HEK293T;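 also: share of the cells with healthy nuclei that show this phenotype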
- Format: toxicity, cell-based
- RUN_PARAMETERS: human, 12 h, 1 µM, compound concentration 1 uM, replicate 2
Each record is given rule met if its reported Population Tubulin-Different-Phenotype (%) is strictly below 20%. Records at or above 20% are given rule not met.

The examples below pair each entry with its known result.
Please check: Population Tubulin-Different-Phenotype (%) for CC1=C(C(=O)Nc2cc3cn[nH]c3cc2F)C(c2ccc(C(F)(F)F)cc2)CC(=O)N1 (stereo not given) , strictly under 20% or not? rule met

Here's an entry: CC(C)NC(=O)N1CC[C@H](NC2=Nc3cc(F)ccc3N(CC(F)F)c3ccc(Cl)cc32)C1 . Is its Population Tubulin-Different-Phenotype (%) below 20%? rule not met

Hi there! Is Population Tubulin-Different-Phenotype (%) for CNC(=O)Nc1ccc(-c2nc(N3CC4CCC(C3)O4)c3cnn(C4CCC5(CC4)OCCO5)c3n2)cc1 below 20%, do you know? rule not met

Field: below-cutoff. Rule: recorded Population Tubulin-Different-Phenotype (%) strictly less than 20%. Subject: CC(C)OC(=O)N1CCC(Oc2ncnc3c2cnn3-c2ccc(S(C)(=O)=O)cc2F)CC1 rule met

Could you please tell me whether Population Tubulin-Different-Phenotype (%) recorded for COc1cc2ncn(-c3cc(OCc4ccccc4C(F)(F)F)c(C(N)=O)s3)c2cc1OC [GW843682X] is less than 20%? rule not met

Consider Cc1c[nH]c2nccc(Oc3c(F)cc(Nc4cc(Cl)nc(N)n4)cc3F)c12 . Does its Population Tubulin-Different-Phenotype (%) lie strictly below 20%? rule met

Just wondering, is Population Tubulin-Different-Phenotype (%) of O=c1cc(N2CCOCC2)oc2c(-c3cccc4c3sc3ccccc34)cccc12 below 20%? rule met

Given Cl.O=C(O)c1cc(-c2ccc(C3CCNCC3)cc2)c2ccc(-c3ccc(C(F)(F)F)cc3)cc2c1 , is recorded Population Tubulin-Different-Phenotype (%) strictly lower than 20%? rule met

Population Tubulin-Different-Phenotype (%) under 20%? Item: CC(C)(C)NC[C@H](O)COc1nsnc1N1CCOCC1 rule not met

Does Cc1cccc(CN2CCN(C(c3ccccc3)c3ccc(Cl)cc3)CC2)c1.Cl.Cl (stereo not given) have Population Tubulin-Different-Phenotype (%) strictly under 20%? rule met

Continuing:
Does the reported Population Tubulin-Different-Phenotype (%) of the following molecule sit strictly below 20%? C=CC(=O)Nc1cccc(Oc2nc(Nc3ccc(N4CCN(C)CC4)cc3OC)ncc2Cl)c1 rule not met

# TODO verify Population Tubulin-Different-Phenotype (%) < 20% strictly for this molecule: C=CC(=O)Nc1cccc(Sc2nc(Nc3ccc(N4CCN(C)CC4)cc3)ncc2Cl)c1 rule not met

I wonder whether COc1ccccc1CN[C@H]1C2CCN(CC2)[C@H]1C(c1ccccc1)c1ccccc1 has Population Tubulin-Different-Phenotype (%) below 20%. Can you tell? rule not met

Input COc1cc(Nc2nccc(-c3cnn4nc(OC)ccc34)n2)cc(C(F)(F)F)c1 ; condition: Population Tubulin-Different-Phenotype (%) strictly below 20%. Does it hold? rule met

Could you please tell me whether Population Tubulin-Different-Phenotype (%) recorded for C=CC(=O)Nc1ccc2[nH]c(=O)n(C3CCN(Cc4ccc(-c5nc6cc[nH]c(=O)c6cc5-c5ccccc5)cc4)CC3)c2c1 is less than 20%? rule met
